# HepSE_liver function tests abnormal annotations
Tested on: Hepatotoxicity;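 also: hepatic side effect score taken from the DILIps (drug-induced liver injury prediction system) training data, here covering abnormal liver function test findings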
// keep it numeric: no unit symbol after the value

Consider the worked cases shown below.
molecule | recordedMeasurement
CCC(=O)O[C@](Cc1ccccc1)(c1ccccc1)[C@H](C)CN(C)C | 1
COC(=O)CCc1ccc(OCC(O)CNC(C)C)cc1 (configuration not stated) | 0
C[C@@H]1C[C@H]2[C@@H]3CCC4=CC(=O)C=C[C@]4(C)[C@@]3(F)[C@@H](O)C[C@]2(C)[C@H]1C(=O)CO | 0
CCOC(=O)CC(SP(=S)(OC)OC)C(=O)OCC (configuration not stated) | 0
O=[N+]([O-])OCC(CO[N+](=O)[O-])O[N+](=O)[O-] | 0

Please report the recorded HepSE_liver function tests abnormal for CN(C)CCc1c[nH]c2ccc(CS(=O)(=O)N3CCCC3)cc12 .
0

Reported HepSE_liver function tests abnormal, molecule CC[C@H]1OC(=O)[C@H](C)[C@@H](O[C@H]2C[C@@](C)(OC)[C@@H](O)[C@H](C)O2)[C@H](C)[C@@H](O[C@@H]2O[C@H](C)C[C@H](N(C)C)[C@H]2O)[C@](C)(O)C[C@@H](C)CN(C)[C@H](C)[C@@H](O)[C@]1(C)O : ____
1
